- ASSAY_REMARKS: Drug concentration at steady state in human at 200 to 800 mg, po QD after 24 hrs
- Format: ADME, organism-based
- CONDITION_PARAMETERS: in vivo, read-out: Css
MEASUREMENT_NAME: concentration at 24 h (µM)
Numbers only, in µM.

query: Entry Cc1ccc(Nc2nccc(N(C)c3ccc4c(C)n(C)nc4c3)n2)cc1S(N)(=O)=O : reported concentration at 24 h = ?
result: 98.8

---

- ASSAY_REMARKS: AUC in human at 6 to 12 mg, po BID after 12 hrs
- Type: ADME, organism-based
- CONDITION_PARAMETERS: in vivo
MEASUREMENT_NAME: AUC at 12 h (nM·h)
One number for each entry, in nM·h.

query: Entry COc1cc(C(C)=O)ccc1OCCCN1CCC(c2noc3cc(F)ccc23)CC1 : reported AUC at 12 h = ?
result: 106

The reported numbers originate from ChEMBL document CHEMBL4028801.
